# MEASURED_TARGET: T1, extracellular domain of human IL12Rb2 (amino acids 24-622 of hIL12Rb2, UniProt Q99665) (human, UniProt Q99665 24-622)
# T1 construct: also called hIL12Rb2 ECD; hIL12Rb2-ECD
# T1 sequence: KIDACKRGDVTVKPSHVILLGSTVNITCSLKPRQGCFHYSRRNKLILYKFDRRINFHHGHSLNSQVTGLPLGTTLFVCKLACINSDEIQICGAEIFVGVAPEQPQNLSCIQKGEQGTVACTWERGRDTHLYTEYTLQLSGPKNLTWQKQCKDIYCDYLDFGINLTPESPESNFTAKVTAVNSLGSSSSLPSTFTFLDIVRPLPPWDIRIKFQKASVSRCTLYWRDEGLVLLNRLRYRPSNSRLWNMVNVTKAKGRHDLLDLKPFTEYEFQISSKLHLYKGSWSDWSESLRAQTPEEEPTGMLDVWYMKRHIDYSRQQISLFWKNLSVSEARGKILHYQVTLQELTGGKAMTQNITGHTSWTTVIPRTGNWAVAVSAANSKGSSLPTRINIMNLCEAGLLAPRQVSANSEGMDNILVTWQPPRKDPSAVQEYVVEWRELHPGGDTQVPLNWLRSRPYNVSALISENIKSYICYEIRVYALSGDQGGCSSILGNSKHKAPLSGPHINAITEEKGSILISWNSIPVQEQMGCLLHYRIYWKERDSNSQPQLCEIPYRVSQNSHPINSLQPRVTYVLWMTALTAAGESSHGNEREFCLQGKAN
# ASSAY_NAME: periplasmic extract ELISA on antigen-coated plate; positive if A450 at least threefold over PBS-coated control
# From the text: Upon completion of the biopanning of Example 3, three 96-well plates of individual phage clones were isolated in order to perform periplasmic extract ELISA (PE-ELISA) on IL12Rb2 coated plates to identify positive VHH binders that selectively bound IL12Rb2. […] Absorbance at 450 nm was read on a microtiter plate reader. Antibodies with absorbance of the antigen-coated well at least threefold greater than PBS-coated control are VHHs that specifically bind to IL 12Rb2. […]

>  <BINDER>
VHH14 (VHH, Camel VHH, tested as a periplasmic extract of a phage clone; also called anti-human IL12Rb2 VHH14; hIL12Rb2 VHH; not shown: HA/His tag encoded by the pMECS phagemid) VHH: QVQLQESGGGSVQAGGSLRLSCAASGVTYSRYCMGWFRQAPGLERERVAHIYSRGIITYYTDSVKGRFTISQDSAKKTVYLQMNSLKPEDTAMYYCAATRETYGGSGDCGYESVYNYWAQGTQVTVSS

>  <binding result>
binds

$$$$
>  <BINDER>
VHH4 (VHH, Camel VHH, tested as a periplasmic extract of a phage clone; also called anti-human IL12Rb2 VHH4; hIL12Rb2 VHH; not shown: HA/His tag encoded by the pMECS phagemid) VHH: QVQLQESGGGSVQAGGSLRLSCVASGFTISRYCMGWLRQAPGKQREGVAIIERDGRTGYADSVKGRFTISKDNAKNTLYLQMNSLKPGDTAMYYCGAIEGSCRPDFGYRGQGTQVTVSS

>  <binding result>
binds

$$$$
>  <BINDER>
VHH17 (VHH, Camel VHH, tested as a periplasmic extract of a phage clone; also called anti-human IL12Rb2 VHH17; hIL12Rb2 VHH; not shown: HA/His tag encoded by the pMECS phagemid) VHH: QVQLQESGGGSVQAGGSLRLSCAASGLTISRYCMGWLRQAPGKQREGVAIIERDGRTGYADSVKGRFTISKDNAKNTLYLQMNSLKPEDTAMYYCGAIEGSCRPDFGYRGQGTQVTVSS

>  <binding result>
binds

$$$$
>  <BINDER>
VHH8 (VHH, Camel VHH, tested as a periplasmic extract of a phage clone; also called anti-human IL12Rb2 VHH8; hIL12Rb2 VHH; not shown: HA/His tag encoded by the pMECS phagemid) VHH: QVQLQESGGGSVQAGGSLRLSCAASGFTVSRYCMGWLRQAPGKQREGVAIIEREGRTGYADSVKGRFTISKDNAKNTLYLQMNSLKPEDTAMYYCGAIEGSCRPDFGYRGQGTQVTVSS

>  <binding result>
binds

$$$$
